MEASURED_ON: QacR (Staphylococcus aureus, UniProt P0A0N3, E90A)
ASSAY_OVERVIEW: biochemical
EXPERIMENTAL_READOUT: pKd
One number for each entry, as −log10 of the molar value.

Input line: Name the reported pKd value associated with the compound "Cc1cc(N)c2ccccc2[n+]1CCCCCCCCCC[n+]1c(C)cc(N)c2ccccc21"
Output line: 5.74

----------
Would you kindly list Kd for each of these molecules?
MEASURED_ON: QacR (Staphylococcus aureus, UniProt P0A0N3, E90A)
ASSAY_OVERVIEW: biochemical
Your reply should be a number followed by the unit it is expressed in.

Worked set:
CCN=c1cc2oc3cc(NCC)c(C)cc3c(-c3ccccc3C(=O)OCC)c-2cc1C [rhodamine 6G]    210 nM
CN(C)c1ccc(C(=C2C=CC(=[N+](C)C)C=C2)c2ccccc2)cc1 [malachite green]    1490 nM

Okay, now this molecule:
Input line: Name the reported Kd value associated with the molecule CC[n+]1c(-c2ccccc2)c2cc(N)ccc2c2ccc(N)cc21 [ethidium]
Output line: 1030 nM
